Target: T1, P6-AA-1HGe-M
T1 chain: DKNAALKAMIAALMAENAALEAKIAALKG
Assay: two-hybrid library CCmax;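 further: natural log of median RNA to DNA barcode read ratio; higher means stronger binding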
Settings: mean of both orientations
property-name: interaction score
Please give the numeric answer without any surrounding text.

Worked set:
binder	interaction score
DENAALEATIAALTAKNAALKAEIAALEG [P5-AA-1HGe-T]	2.18
DENAALEAWIAALWAKNAALKAEIAALEG [P5-AA-1HGe-W]	1.92
DENAALEAMIAALMAKNAALKAEIAALEG [P5-AA-1HGe-M]	2.35

[Q] What value of interaction score has been recorded for this entry: DENAALEADIAALDAKNAALKAEIAALEG [P5-AA-1HGe-D]
[A] 0.758

[Q] What value of interaction score has been recorded for this entry: DENAALEAQIAALQAKNAALKAEIAALEG [P5-AA-1HGe-Q]
[A] 2.3

[Q] What value of interaction score has been recorded for this entry: DENAALEAYIAALYAKNAALKAEIAALEG [P5-AA-1HGe-Y]
[A] 1.95

[Q] What value of interaction score has been recorded for this entry: DENAALEAHIAALHAKNAALKAEIAALEG [P5-AA-1HGe-H]
[A] 1.95

[Q] What value of interaction score has been recorded for this entry: DENAALEARIAALRAKNAALKAEIAALEG [P5-AA-1HGe-R]
[A] 1.53

[Q] What value of interaction score has been recorded for this entry: DENAALEAEIAALEAKNAALKAEIAALEG [O5-AA]
[A] 2.3

[Q] What value of interaction score has been recorded for this entry: DENAALEAAIAALAAKNAALKAEIAALEG [P5-AA-1HGe-A]
[A] 2.21
